B1: TPR t1 (parent)
chain: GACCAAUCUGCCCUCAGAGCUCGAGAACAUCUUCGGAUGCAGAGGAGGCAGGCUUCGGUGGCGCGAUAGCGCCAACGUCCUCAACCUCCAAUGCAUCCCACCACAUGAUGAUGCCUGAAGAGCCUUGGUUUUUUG

variants of: B1; experiment: polymerase ribozyme fitness, log enrichment relative to wild type (log ratio); higher = more active; in vitro selection for triplet polymerase activity
Listed variants paired with reported polymerase ribozyme fitness (log ratio)

- Variant Id: "G17A G71U"
  polymerase ribozyme fitness (log ratio): -3.07
- Variant Id: "A50G U78G"
  polymerase ribozyme fitness (log ratio): 0.0351
- Variant Id: "C8A G10C A50U C72U"
  polymerase ribozyme fitness (log ratio): -1.02
- Variant Id: "A6G C101A C115G"
  polymerase ribozyme fitness (log ratio): -1.96
